# CONDITION_DESCRIPTION: in n-heptanol, 278.15 K
EXPERIMENTAL_ENDPOINT: solubility (mole fraction)
No unit in the answer, only the number.

Q. Data request, read-out solubility (mole fraction), for `CC1(C)O[C@@H]2[C@@H](CO[C@@]3(COS(N)(=O)=O)OC(C)(C)O[C@@H]23)O1`
A. 0.00256

====

# CONDITION_DESCRIPTION: in 2-methoxyethanol, 308.15 K
EXPERIMENTAL_ENDPOINT: solubility (mole fraction)
No unit in the answer, only the number.

Q. Data request, read-out solubility (mole fraction), for `CC1(C)O[C@@H]2[C@@H](CO[C@@]3(COS(N)(=O)=O)OC(C)(C)O[C@@H]23)O1`
A. 0.212

====

# CONDITION_DESCRIPTION: in n-pentanol, 298.15 K
EXPERIMENTAL_ENDPOINT: solubility (mole fraction)

Q. Data request, read-out solubility (mole fraction), for `CC1(C)O[C@@H]2[C@@H](CO[C@@]3(COS(N)(=O)=O)OC(C)(C)O[C@@H]23)O1`
A. 0.00969

====

# CONDITION_DESCRIPTION: in isopropanol, 318.15 K
EXPERIMENTAL_ENDPOINT: solubility (mole fraction)
No unit in the answer, only the number.

Q. Data request, read-out solubility (mole fraction), for `CC1(C)O[C@@H]2[C@@H](CO[C@@]3(COS(N)(=O)=O)OC(C)(C)O[C@@H]23)O1`
A. 0.0594

====

# CONDITION_DESCRIPTION: in 2-propoxyethanol, 278.15 K
EXPERIMENTAL_ENDPOINT: solubility (mole fraction)
No unit in the answer, only the number.

Q. Data request, read-out solubility (mole fraction), for `CC1(C)O[C@@H]2[C@@H](CO[C@@]3(COS(N)(=O)=O)OC(C)(C)O[C@@H]23)O1`
A. 0.0726

====

# CONDITION_DESCRIPTION: in n-propanol, 288.15 K
EXPERIMENTAL_ENDPOINT: solubility (mole fraction)
No unit in the answer, only the number.

Q. Data request, read-out solubility (mole fraction), for `CC1(C)O[C@@H]2[C@@H](CO[C@@]3(COS(N)(=O)=O)OC(C)(C)O[C@@H]23)O1`
A. 0.0116

====

# CONDITION_DESCRIPTION: in ethanol, 288.15 K
EXPERIMENTAL_ENDPOINT: solubility (mole fraction)
No unit in the answer, only the number.

Q. Data request, read-out solubility (mole fraction), for `CC1(C)O[C@@H]2[C@@H](CO[C@@]3(COS(N)(=O)=O)OC(C)(C)O[C@@H]23)O1`
A. 0.0252

====

# CONDITION_DESCRIPTION: in 2-butoxyethanol, 313.15 K
EXPERIMENTAL_ENDPOINT: solubility (mole fraction)
No unit in the answer, only the number.

Q. Data request, read-out solubility (mole fraction), for `CC1(C)O[C@@H]2[C@@H](CO[C@@]3(COS(N)(=O)=O)OC(C)(C)O[C@@H]23)O1`
A. 0.124

====

# CONDITION_DESCRIPTION: in 2-methoxyethanol, 278.15 K
EXPERIMENTAL_ENDPOINT: solubility (mole fraction)
No unit in the answer, only the number.

Q. Data request, read-out solubility (mole fraction), for `CC1(C)O[C@@H]2[C@@H](CO[C@@]3(COS(N)(=O)=O)OC(C)(C)O[C@@H]23)O1`
A. 0.149
